Target: full length human RORγt (Homo sapiens, UniProt P51449)
Construct: full length human RORγt together in COS-7 cells
Sequence (P51449 1-497 isoform P51449-2): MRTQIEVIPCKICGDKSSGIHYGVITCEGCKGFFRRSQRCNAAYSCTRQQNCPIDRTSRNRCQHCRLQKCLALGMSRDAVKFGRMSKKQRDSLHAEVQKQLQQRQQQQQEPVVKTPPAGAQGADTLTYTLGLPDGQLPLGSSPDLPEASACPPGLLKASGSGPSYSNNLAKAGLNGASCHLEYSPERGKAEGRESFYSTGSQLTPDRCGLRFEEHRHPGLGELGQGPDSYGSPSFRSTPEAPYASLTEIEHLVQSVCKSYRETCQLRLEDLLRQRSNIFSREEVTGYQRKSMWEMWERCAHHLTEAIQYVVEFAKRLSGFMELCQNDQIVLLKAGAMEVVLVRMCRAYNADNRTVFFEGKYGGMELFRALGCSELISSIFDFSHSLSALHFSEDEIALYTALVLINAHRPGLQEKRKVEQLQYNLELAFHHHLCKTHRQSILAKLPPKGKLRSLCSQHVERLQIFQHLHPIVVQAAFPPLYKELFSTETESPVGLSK
Experiment: 5×RORE based luciferase assay
Conditions: COS-7 cells transfected with 5×RORE-Luc and hRORγt, 18-20 h treatment
Value Kind: log10 of IC50 (log10 of the value in nM)
Hello, just confirming the data are log10 of IC50 with units of nM.

Previously resolved entries follow.
CCS(=O)(=O)c1ccc(CC(=O)Nc2cc(Cl)c(C3(c4noc(-c5ccc(F)cc5F)n4)CC3)c(Cl)c2)cc1 : 0.94
CCS(=O)(=O)c1ccc(CC(=O)Nc2cc(Cl)c(C3(c4noc(-c5ccc(C(F)(F)F)cc5)n4)CC3)c(Cl)c2)cc1 : 0.93
CCS(=O)(=O)c1ccc(CC(=O)Nc2cc(Cl)c(C3(c4noc(-c5ccc(F)c(F)c5)n4)CC3)c(Cl)c2)cn1 : 0.98
CCS(=O)(=O)c1ccc(CC(=O)Nc2cc(Cl)c(C3(c4noc(-c5ccc(OC)nc5)n4)CC3)c(Cl)c2)cc1 : 1.20
CCS(=O)(=O)c1ccc(CC(=O)Nc2cc(Cl)c(C3(c4nc(-c5ccc(F)cc5)no4)CC3)c(Cl)c2)cc1 : 0.36
CCS(=O)(=O)c1ccc(CC(=O)Nc2cc(Cl)c(C3(c4nc5ccc(F)cc5o4)CC3)c(Cl)c2)cc1 : 0.39
CCS(=O)(=O)c1ccc(CC(=O)Nc2cc(Cl)c(C3(c4noc(-c5ccc(Cl)c(Cl)c5)n4)CC3)c(Cl)c2)cc1 : 1.20
CCS(=O)(=O)c1ccc(CC(=O)Nc2cc(Cl)c(C3(c4noc(-c5ccc(F)c(Cl)c5)n4)CC3)c(Cl)c2)nc1 : 1.00
CCS(=O)(=O)c1ccc(CC(=O)Nc2cc(Cl)c(C3(c4noc(-c5ccc(OC)cc5F)n4)CC3)c(Cl)c2)cc1 : 0.76
CCS(=O)(=O)c1ccc(CC(=O)Nc2cc(C)c(C3(c4noc(-c5ccc(F)cc5)n4)CC3)c(C)c2)cc1 : 1.31

input: Assign log10 of IC50 to the following record: CCS(=O)(=O)c1ccc(CC(=O)Nc2cc(Cl)c(C3(c4noc(-c5c(F)cc(F)cc5F)n4)CC3)c(Cl)c2)cc1
output: 1.04

input: Assign log10 of IC50 to the following record: CCS(=O)(=O)c1ccc(CC(=O)Nc2cc(Cl)c(C3(c4noc(-c5cccnc5)n4)CC3)c(Cl)c2)cc1
output: 0.20

input: Assign log10 of IC50 to the following record: CCS(=O)(=O)c1ccc(CC(=O)Nc2cc(Cl)c(C3(c4noc(-c5cccc(Cl)c5)n4)CC3)c(Cl)c2)nc1
output: 1.08

input: Assign log10 of IC50 to the following record: CCS(=O)(=O)c1ccc(CC(=O)Nc2cc(Cl)c(C3(c4noc(-c5ccccc5)n4)CC3)c(Cl)c2)cc1
output: 0.85

input: Assign log10 of IC50 to the following record: CCS(=O)(=O)c1ccc(CC(=O)Nc2cc(Cl)c(C3(c4noc(-c5ccc(Cl)cc5)n4)CC3)c(Cl)c2)cc1
output: 0.95

input: Assign log10 of IC50 to the following record: CCS(=O)(=O)c1ccc(CC(=O)Nc2cc(Cl)c(C3(c4noc(-c5ccc(F)cc5Cl)n4)CC3)c(Cl)c2)nc1
output: 1.11

input: Assign log10 of IC50 to the following record: CCS(=O)(=O)c1ccc(CC(=O)Nc2cc(Cl)c(C3(c4noc(-c5ccc(C#N)cc5)n4)CC3)c(Cl)c2)nc1
output: 0.28

input: Assign log10 of IC50 to the following record: CCS(=O)(=O)c1ccc(CC(=O)Nc2cc(Cl)c(C3(c4noc(-c5ccc(F)c(Cl)c5)n4)CC3)c(Cl)c2)cn1
output: 1.23

input: Assign log10 of IC50 to the following record: O=C(Cc1ccc(S(=O)(=O)NC2CC2)cc1)Nc1cc(Cl)c(C2(c3nc4ccc(F)cc4o3)CC2)c(Cl)c1
output: 0.38

input: Assign log10 of IC50 to the following record: CCS(=O)(=O)c1ccc(CC(=O)Nc2cc(Cl)c(C3(c4noc(-c5ccc(F)cc5)n4)CC3)c(Cl)c2)nc1
output: -0.12

input: Assign log10 of IC50 to the following record: CCS(=O)(=O)c1ccc(CC(=O)Nc2cc(Cl)c(C3(c4noc(C5CCOCC5)n4)CC3)c(Cl)c2)cc1
output: 1.11

* * *

System: secreted IL-17 in peripheral blood mononuclear cells (PBMCs)
Experiment: Human IL-17 inhibition assay
Assay type: cell-based
Conditions: PBMC, anti-CD3/anti-CD28, 72 h, read-out: IL17 IC50
IC50 under 20 nM gets 1 (yes), anything at or over 20 nM gets 0 (no).

Answered examples (10):
CCS(=O)(=O)c1ccc(CC(=O)Nc2cc(Cl)c(C3(c4noc(C5CCOCC5)n4)CC3)c(Cl)c2)cc1 [Example 27] : 1 (yes)
CCS(=O)(=O)c1ccc(CC(=O)Nc2cc(C)c(C3(c4noc(-c5ccc(F)cc5)n4)CC3)c(C)c2)cc1 [Example 33] : 0 (no)
CCS(=O)(=O)c1ccc(CC(=O)Nc2cc(Cl)c(C3(c4noc(-c5ccc(Cl)cc5)n4)CC3)c(Cl)c2)cc1 [Example 13] : 0 (no)
CCS(=O)(=O)c1ccc(CC(=O)Nc2cc(Cl)c(C3(c4noc(-c5ccc(Cl)cc5)n4)CC3)c(Cl)c2)cn1 [Example 72] : 0 (no)
CCS(=O)(=O)c1ccc(CC(=O)Nc2cc(Cl)c(C3(c4noc(-c5ccc(OC)cc5F)n4)CC3)c(Cl)c2)cc1 [Example 15] : 0 (no)
CCS(=O)(=O)c1ccc(CC(=O)Nc2cc(Cl)c(C3(c4noc(C5CC(F)(F)C5)n4)CC3)c(Cl)c2)cc1 [Example 26] : 1 (yes)
CCS(=O)(=O)c1ccc(CC(=O)Nc2cc(Cl)c(C3(c4noc(-c5ccc(F)c(Cl)c5)n4)CC3)c(Cl)c2)nc1 [Example 47] : 1 (yes)
CCS(=O)(=O)c1ccc(CC(=O)Nc2cc(Cl)c(C3(c4nc5ccc(F)cc5o4)CC3)c(Cl)c2)cc1 [Example 36] : 1 (yes)
CCS(=O)(=O)c1ccc(CC(=O)Nc2cc(Cl)c(C3(c4noc(-c5ccc(F)c(Cl)c5)n4)CC3)c(Cl)c2)cc1 [Example 10] : 1 (yes)
CCS(=O)(=O)c1ccc(CC(=O)Nc2cc(Cl)c(C3(c4noc(C(C)C)n4)CC3)c(Cl)c2)cc1 [Example 23] : 0 (no)

input: Dear reviewer, please state whether O=C(Cc1ccc(S(=O)(=O)NC2CC2)cc1)Nc1cc(Cl)c(C2(c3nc4ccc(F)cc4o3)CC2)c(Cl)c1 [Example 65] has IC50 strictly beneath 20 nM.
output: 1 (yes)

input: Dear reviewer, please state whether CCS(=O)(=O)c1ccc(CC(=O)Nc2cc(Cl)c(C3(c4noc(-c5cccc(Cl)c5)n4)CC3)c(Cl)c2)nc1 [Example 51] has IC50 strictly beneath 20 nM.
output: 1 (yes)

input: Dear reviewer, please state whether CCS(=O)(=O)c1ccc(CC(=O)Nc2cc(Cl)c(C3(c4noc(-c5ccc(Cl)s5)n4)CC3)c(Cl)c2)cc1 [Example 17] has IC50 strictly beneath 20 nM.
output: 1 (yes)

input: Dear reviewer, please state whether CCS(=O)(=O)c1ccc(CC(=O)Nc2cc(Cl)c(C3(c4noc(-c5cccc(F)c5)n4)CC3)c(Cl)c2)cc1 [Example 6] has IC50 strictly beneath 20 nM.
output: 0 (no)

* * *

Each entry below carries its recorded pIC50.
System: secreted IL-17 in peripheral blood mononuclear cells (PBMCs)
Test: Human IL-17 inhibition assay
Type: cell-based
Details: PBMC, anti-CD3/anti-CD28, 72 h, read-out: IL17 IC50
Scale: pIC50 equals -log10([C]), with [C] in mol/L.

Previously resolved entries follow.
CCS(=O)(=O)c1ccc(CC(=O)Nc2cc(Cl)c(C3(c4noc(-c5ccc(Cl)cc5Cl)n4)CC3)c(Cl)c2)cc1 : 7.97
CCS(=O)(=O)c1ccc(CC(=O)Nc2cc(Cl)c(C3(c4noc(-c5ccc(F)cc5Cl)n4)CC3)c(Cl)c2)cc1 : 8.04
CCS(=N)(=O)c1ccc(CC(=O)Nc2cc(Cl)c(C3(c4noc(-c5ccc(F)cc5)n4)CC3)c(Cl)c2)cc1 (centres unmarked) : 7.46
CCS(=O)(=O)c1ccc(CC(=O)Nc2cc(Cl)c(C3(c4noc(-c5ccc(F)cc5F)n4)CC3)c(Cl)c2)cc1 : 7.98

input: Assign pIC50 to the following record: CCS(=O)(=O)c1ccc(CC(=O)Nc2cc(Cl)c(C3(c4noc(-c5ccccc5)n4)CC3)c(Cl)c2)cc1
output: 7.60

input: Assign pIC50 to the following record: CCS(=O)(=O)c1ccc(CC(=O)Nc2cc(Cl)c(C3(c4noc(-c5ccc(C(F)(F)F)cc5)n4)CC3)c(Cl)c2)cc1
output: 7.42

input: Assign pIC50 to the following record: CCS(=O)(=O)c1ccc(CC(=O)Nc2cc(Cl)c(C3(c4noc(-c5ccc(F)c(Cl)c5)n4)CC3)c(Cl)c2)cn1
output: 7.66
